Tested on: PEPCK-c
procedure-text: PEPCK-c mRNA expression in HepG2 cells
Assay type: cell-based, human
experimental-setup: HepG2 cells, Experiment 1, basal (no insulin), four hours; UTC = 100
In the oligonucleotide strings, read from the 5' end, every base follows the letter of its sugar. An asterisk marks phosphorothioate; unmarked linkages are phosphodiester. Other units and linkages are bracketed, terminal groups are in braces. A string of capitals states the bases alone. e = 2'-O-(2-methoxyethyl) (MOE); [5mC] = 5-methylcytosine

| substance | PEPCKc mRNA |
| --- | --- |
| 327900 (antisense e[5mC]*eT*eG*e[5mC]*e[5mC]*eT*eG*eT*e[5mC]*eT*eG*eT*eG*e[5mC]*e[5mC]*eT*eG*e[5mC]*eT*eG*eT) [compound 327900] | 88 |
| 327950 (antisense eT*e[5mC]*eA*eG*eT*eT*eT*eT*eG*e[5mC]*eA*eT*eA*eG*eA*eT*eT*eT*eG*e[5mC]*eA*e[5mC]*eA) [compound 327950] | 65 |
| 341808 (antisense GAACUGCCUUUCUCUCCA; all 2'-MOE, all phosphorothioate, methylation of C and T or U not given here) [compound 341808] | 64 |
| 341803 (antisense CCACACACTTCCTTACATTCCA; all 2'-MOE, all phosphorothioate, methylation of C not given here) [compound 341803] | 110 |
| 327957 (antisense e[5mC]*eA*e[5mC]*eA*eA*eG*eT*eT*e[5mC]*eG*eG*eA*eT*e[5mC]*eT*eA*e[5mC]*eG*eG*eG*eT*eT) [compound 327957] | 59 |
